- Test system: MDA-MB-435 melanoma
- assay.summary: NCI-60 one-dose screen, 48 h (100 = growth as untreated, 0 = no growth, -100 = all killed)
- condition.set: 10 µM unless noted
The panel holds about 83,000 compounds, 20% with a hit somewhere; the sample as a whole holds those more often.
quantity.measured: growth (%)
Kindly provide the numeric value in % only, without the unit symbol.

[[record]]
compound = "Nc1c(Br)cc2c3c(cccc13)-c1ccccc1-2"
quantity_measured = "growth"
result_value = 78.8

[[record]]
compound = "O=C1NC(=S)NC(=O)C1=Cc1ccccc1"
quantity_measured = "growth"
result_value = 124

[[record]]
compound = "CCOC(=O)Nc1cc(Cl)c([N+](=O)[O-])c(NC(=O)OCC)n1"
quantity_measured = "growth"
result_value = 65.4

[[record]]
compound = "C[C@]12CC[C@@H]3c4ccc(OC(=O)Cc5ccc(N(CCCl)CCCl)cc5)cc4CC[C@H]3[C@@H]1CC[C@@H]2OC(=O)Cc1ccc(N(CCCl)CCCl)cc1"
quantity_measured = "growth"
result_value = 112


Request: Return reported growth; argument: OC1CCCCC1N1CCC(c2ccccc2)CC1 (stereo unspecified)
Result: 100

Request: # growth lookup, item ClCCN(CCCl)c1nc(Cl)c(C2CC(c3ccccc3)=NN2c2ccccc2)s1 (stereo unspecified)
Result: 103

Request: Given the entry `O=c1cc[nH]c(=O)o1` , report its measured growth.
Result: 111
